# Test system: CAOV3
# methodNotes: Confirmatory qHTS for gynecologic anti-cancer compounds from libraries of approved drugs and bioactive compounds; note: nearly all actives have a fitted effect of over 55% in size
# conditionSummary: gynecologic cancer cell panel viability, ATPlite luminescence, 48 h; series mostly up to 57.6 µM
Inconclusive results are not listed. The source made the active and inactive calls. Calls come from the whole dose curve; as a rule, active = well fitted cell-killing curve with a large enough effect; inconclusive = small, poorly fitted or top-dose-only effect, or effect the other way; inactive = no such curve, though single readings can be large or run the other way.
Labels: active, inactive

{"compound": "CN(C)C1CCN(C(=O)c2ccc(NC(=O)Nc3nc(N4CCOCC4)nc(N4CCOCC4)n3)cc2)CC1", "targetEntity": "CAOV3", "classification": "active"}
{"compound": "Cn1cnc2c(F)c(Nc3ccc(Br)cc3Cl)c(C(=O)NOCCO)cc21", "targetEntity": "CAOV3", "classification": "inactive"}
{"compound": "Cc1ccccc1C(OCCN(C)C)c1ccccc1 (centres undefined)", "targetEntity": "CAOV3", "classification": "inactive"}
{"compound": "CNC(=O)c1ccccc1Nc1nc(Nc2ccc(N3CCOCC3)cc2OC)ncc1Cl", "targetEntity": "CAOV3", "classification": "active"}
{"compound": "Cc1nc(Nc2n[nH]c3c2CN(C(=O)NC(CN(C)C)c2ccccc2)C3(C)C)c2sccc2n1 (centres undefined)", "targetEntity": "CAOV3", "classification": "active"}
{"compound": "COc1ccccc1N1CCN(CC(O)COc2cccc3ccccc23)CC1 (centres undefined)", "targetEntity": "CAOV3", "classification": "inactive"}
{"compound": "C1CCC(C(CC2CCCCN2)C2CCCCC2)CC1 (centres undefined)", "targetEntity": "CAOV3", "classification": "active"}
{"compound": "CCN1C[C@H](C)n2c(c(O)c3c(=O)n(Cc4ccc(F)c(Cl)c4)nc(C(=O)NC)c32)C1=O", "targetEntity": "CAOV3", "classification": "inactive"}
{"compound": "CC(=O)Nc1cccc(-n2c(=O)n(C3CC3)c(=O)c3c(Nc4ccc(I)cc4F)n(C)c(=O)c(C)c32)c1", "targetEntity": "CAOV3", "classification": "inactive"}
{"compound": "O=C1N(c2ccccc2)c2ccccc2C1(Cc1ccncc1)Cc1ccncc1", "targetEntity": "CAOV3", "classification": "inactive"}
{"compound": "Cc1ccc(C(=O)Nc2ccc(CN3CCN(C)CC3)c(C(F)(F)F)c2)cc1C#Cc1cnc2[nH]ncc2c1", "targetEntity": "CAOV3", "classification": "active"}
{"compound": "C=CC(=O)Nc1cccc(Oc2nc(Nc3ccc(N4CCN(C)CC4)cc3)ncc2Cl)c1", "targetEntity": "CAOV3", "classification": "active"}
{"compound": "CC(C)Nc1cc(-c2c[nH]c(C(=O)N[C@H](CO)c3cccc(Cl)c3)c2)c(Cl)cn1", "targetEntity": "CAOV3", "classification": "inactive"}
{"compound": "O=C(CCCCCCC(=O)Nc1ccccc1)NO", "targetEntity": "CAOV3", "classification": "active"}
{"compound": "Cn1cnc2c(F)c(Nc3ccc(Br)cc3F)c(C(=O)NOCCO)cc21", "targetEntity": "CAOV3", "classification": "inactive"}
{"compound": "N#CC1(c2cccc(C(=O)Nc3cc(Oc4ccc5nc(NC(=O)C6CC6)sc5n4)ccc3F)c2Cl)CC1", "targetEntity": "CAOV3", "classification": "inactive"}
{"compound": "Cc1ccc(C(=O)N(CCCN)C(c2nc3cc(Cl)ccc3c(=O)n2Cc2ccccc2)C(C)C)cc1 (centres undefined)", "targetEntity": "CAOV3", "classification": "active"}
{"compound": "OCc1ccc(-c2ccc(-c3ccc(CO)s3)o2)s1", "targetEntity": "CAOV3", "classification": "active"}
{"compound": "CCC1C(=O)N(C)c2cnc(Nc3ccc(C(=O)NC4CCC(N5CCN(CC6CC6)CC5)CC4)cc3OC)nc2N1C(C)C (centres undefined)", "targetEntity": "CAOV3", "classification": "active"}
{"compound": "CC[C@@]1(O)C(=O)OCc2c1cc1n(c2=O)Cc2c-1nc1ccccc1c2/C=N/OC(C)(C)C", "targetEntity": "CAOV3", "classification": "active"}
{"compound": "CN1C(=O)C(Cc2c[nH]c3ccccc23)NC1=S (centres undefined)", "targetEntity": "CAOV3", "classification": "inactive"}
{"compound": "Cc1cnc(Nc2cccc(CN3CCOCC3)c2)nc1Nc1cccc(S(=O)(=O)NC(C)(C)C)c1", "targetEntity": "CAOV3", "classification": "active"}
{"compound": "Cc1ccc(C(=O)Nc2cccc(C(F)(F)F)c2)cc1-c1ccc2nc(NCCN3CCOCC3)ncc2c1", "targetEntity": "CAOV3", "classification": "active"}
{"compound": "CN(C)C(CCOc1cccc2ccccc12)c1ccccc1 (centres undefined)", "targetEntity": "CAOV3", "classification": "active"}
{"compound": "CCCCN(CCCC)CC(O)c1cc(Cl)cc2c1-c1ccc(Cl)cc1/C2=C/c1ccc(Cl)cc1 (centres undefined)", "targetEntity": "CAOV3", "classification": "inactive"}
{"compound": "COC(C)(C)CCn1nc(Nc2c(C)cccc2C)c2cnc(Nc3ccc(OCCN4CCCC4)c(F)c3)nc21", "targetEntity": "CAOV3", "classification": "active"}
{"compound": "COc1cc(F)c(F)c(Nc2ccc(I)cc2F)c1NS(=O)(=O)C1(CC(O)CO)CC1 (centres undefined)", "targetEntity": "CAOV3", "classification": "inactive"}
{"compound": "COc1ccc2cc3[n+](cc2c1OC)CCc1cc2c(cc1-3)OCO2", "targetEntity": "CAOV3", "classification": "inactive"}
{"compound": "COc1ccc2c(c1OC)C(=O)O[C@@H]2[C@H]1c2c(cc3c(c2OC)OCO3)CCN1C", "targetEntity": "CAOV3", "classification": "inactive"}

====

# Test system: CAOV3
# methodNotes: Confirmatory qHTS for gynecologic anti-cancer compounds from libraries of approved drugs and bioactive compounds; note: nearly all actives have a fitted effect of over 55% in size
# conditionSummary: gynecologic cancer cell panel viability, ATPlite luminescence, 48 h; series mostly up to 57.6 µM
Results filed as inconclusive are left out. Activity calls are given as the source filed them. Calls follow the shape of the dose curve; as a rule, active = well fitted cell-killing curve with a large enough effect; inconclusive = small, poorly fitted or top-dose-only effect, or effect the other way; inactive = no such curve, though single readings can be large or run the other way.
Labels: active, inactive

{"compound": "CN[C@@H](C)C(=O)N[C@H]1CN(C(=O)CC(C)C)CC[C@H]2CC[C@@H](C(=O)NC(c3ccccc3)c3ccccc3)N2C1=O", "targetEntity": "CAOV3", "classification": "inactive"}
{"compound": "Cc1cc(Nc2nc(N[C@@H](C)c3ccc(F)cc3)c(C#N)cc2F)n[nH]1", "targetEntity": "CAOV3", "classification": "active"}
{"compound": "CN(C)CC/C=C1\\c2ccccc2COc2ccccc21", "targetEntity": "CAOV3", "classification": "inactive"}
{"compound": "c1nc2nc(Nc3ccc(N4CCOCC4)cc3)nc(NC3CCCCC3)c2[nH]1", "targetEntity": "CAOV3", "classification": "active"}
{"compound": "COc1c(C)c2c(c(O)c1C/C=C(\\C)CCC(=O)OCCN1CCOCC1)C(=O)OC2", "targetEntity": "CAOV3", "classification": "inactive"}
{"compound": "Cc1ccc(C(N)=O)cc1Nc1nccc(-c2cn(C(C)C)c3cnccc23)n1", "targetEntity": "CAOV3", "classification": "active"}
{"compound": "Cc1cnc(Nc2ccc(OCCN3CCCC3)cc2)nc1Nc1cccc(S(=O)(=O)NC(C)(C)C)c1", "targetEntity": "CAOV3", "classification": "active"}
{"compound": "CCN(CC)CCOc1ccc(/C(=C(\\Cl)c2ccccc2)c2ccccc2)cc1", "targetEntity": "CAOV3", "classification": "active"}
{"compound": "CCN1CCN(Cc2ccc(-c3cc4c(NC(C)c5ccccc5)ncnc4[nH]3)cc2)CC1 (stereo not given)", "targetEntity": "CAOV3", "classification": "active"}
{"compound": "CS(=O)(=O)c1ccc(-c2cnc(N)c(C(=O)Nc3ccccc3)n2)cc1", "targetEntity": "CAOV3", "classification": "inactive"}
